Recorded Kd by entry
Biological target: T1, human IL-18BP (human, UniProt O95998 31-194)
T1 construct: UniProt printed as 095998; also called hIL-18BP
T1 sequence: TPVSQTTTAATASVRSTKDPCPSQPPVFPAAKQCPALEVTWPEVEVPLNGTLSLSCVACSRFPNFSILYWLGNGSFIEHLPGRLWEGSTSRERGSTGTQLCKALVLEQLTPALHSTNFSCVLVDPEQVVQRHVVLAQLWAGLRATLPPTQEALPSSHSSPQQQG
Experiment: BLI, apparent KD

{"binder": "SA301a HC-V100aH (antibody, name in Kabat numbering, V domains shown, IgG1 kappa) VH: QVQLQESGPGLVKPSQTLSLTCTVSGYSITSDYNSHWIRQPPGKGLEWIGYIHYSGSTNYNPSLKSRVTISRDTSKNQFSLKLSSVTAADTAVYYCARNYGSIYHNYFDYWGQGTLVTVSS VL: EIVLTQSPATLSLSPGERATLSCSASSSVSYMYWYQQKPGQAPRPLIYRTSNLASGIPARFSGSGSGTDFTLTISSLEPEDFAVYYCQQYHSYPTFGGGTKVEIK", "Kd / nM": 0.41}
{"binder": "SA301a HC-V100aY (antibody, name in Kabat numbering, V domains shown, IgG1 kappa) VH: QVQLQESGPGLVKPSQTLSLTCTVSGYSITSDYNSHWIRQPPGKGLEWIGYIHYSGSTNYNPSLKSRVTISRDTSKNQFSLKLSSVTAADTAVYYCARNYGSIYYNYFDYWGQGTLVTVSS VL: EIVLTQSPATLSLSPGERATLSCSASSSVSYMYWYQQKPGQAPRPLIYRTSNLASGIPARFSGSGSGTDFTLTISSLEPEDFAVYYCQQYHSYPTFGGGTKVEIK", "Kd / nM": 27.7}
{"binder": "SA301a HC-Y100I (antibody, V domains shown) VH: QVQLQESGPGLVKPSQTLSLTCTVSGYSITSDYNSHWIRQPPGKGLEWIGYIHYSGSTNYNPSLKSRVTISRDTSKNQFSLKLSSVTAADTAVYYCARNYGSIIVNYFDYWGQGTLVTVSS VL: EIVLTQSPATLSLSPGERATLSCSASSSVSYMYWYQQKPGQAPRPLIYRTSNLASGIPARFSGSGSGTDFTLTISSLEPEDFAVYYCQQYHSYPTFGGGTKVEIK", "Kd / nM": 0.94}
